# System: MDAMB175VII
# Protocol description: -log10 GI50 (growth inhibition 50%) (-log10(M)); higher = more potent growth inhibition
Overview of reported -log10 GI50 across a group of molecules:

As a guide, the following entries are already answered.
1) O=S(=O)(CC1CS1)c1ccc(Oc2ccccc2)cc1 (stereo not drawn): < 4
2) N#Cc1c(-c2ccccc2)cc(-c2cc(Br)ccc2O)[nH]c1=O: < 3.88

Using known records, supply -log10 GI50 for O=C(O)c1ccc(-c2c[nH]c3ncc(-c4ccccc4)cc23)cc1C1CCCC1
< 4.18

----------
# System: MCF10F
# Protocol description: -log10 GI50 (growth inhibition 50%) (-log10(M)); higher = more potent growth inhibition
Observable: -log10 GI50

# return recorded -log10 GI50 for entry COc1cccc(-c2cc(=O)c3ccccc3o2)c1N
< 4.3

Supply reported -log10 GI50 belonging to this compound: COc1cc2c(Nc3ccc(NC(=O)c4ccccc4)cc3)ncnc2cc1OCCCN1CCOCC1
< 4

Answer with the recorded -log10 GI50 of Cc1cncc2cccc(S(=O)(=O)N3CCCN(C(=O)CN)C[C@@H]3C)c12 [Glycyl H1152] only.
< 4.18
